method: chemical genetic growth profiling, strain panel (AID 1159580);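 note: tested at 20 µM; growth read once vehicle control cultures reached saturation at 30 °C; 1 = growth at the plate median or of vehicle wells; lower values mean less growth of the strain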
details: S. cerevisiae deletion strains, growth OD, locus YOR070C, strain gyp1, hits give low values
The campaign covered roughly 5,500 compounds. About 2,000 (36%) were called active. Another 18% or so got no clear call; they are omitted. This is one part of the list.
observable: normalized growth
The response must contain the number and no unit.

Worked examples follow.
> print(dat)
                                   compound  recorded.value
1  C#C[C@]1(OC(C)=O)CCC2C3CCC4=CC(=O)CC[C@@H]4C3CC[C@@]21C (stereo partly specified)           0.994
2          Cc1ccnc(NS(=O)(=O)c2ccc(N)cc2)n1           0.989
3  CC1(C)CC[C@]2(C(=O)O)CC[C@]3(C)C(=CCC4[C@@]5(C)CC[C@@H](O)C(C)(C)C5CC[C@]43C)C2C1 (stereo partly specified)            1.03

stdin: // query normalized growth value for entry COc1cc(N)c(Cl)cc1C(=O)NC1CCN(Cc2ccccc2)CC1
stdout: 0.997

stdin: // query normalized growth value for entry C/C=C(/C)C(=O)OC1CCC2(C)C3CCC4C5(O)CC(O)C6(O)C(CN7CC(C)CCC7C6(C)O)C5(O)CC42OC13O (stereo unspecified)
stdout: 0.987

stdin: // query normalized growth value for entry CC1(C)CCC2(C(=O)O)CCC3(C)C(=CCC4C5(C)CCC(O)C(C)(C)C5C(O)CC43C)C2C1 (stereo unspecified)
stdout: 1.03

====

method: chemical genetic growth profiling, strain panel (AID 1159580);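 note: tested at 20 µM; growth read once vehicle control cultures reached saturation at 30 °C; 1 = growth at the plate median or of vehicle wells; lower values mean less growth of the strain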
details: S. cerevisiae deletion strains, growth OD, locus YOR270C, strain vph1, hits give low values
The campaign covered roughly 5,500 compounds. About 2,000 (36%) were called active. Inconclusive results (about 18%) are left out. The list shows a part of the results.
observable: normalized growth
The response must contain the number and no unit.

Worked examples follow.
> print(dat)
                                   compound  recorded.value
1  CCN1C[C@]2(OC(=O)c3ccccc3NC(C)=O)CCC(OC)[C@]34C1[C@H](CC23)[C@@]1(O)CC(OC)[C@H]2CC4C1(O)[C@H]2OC (stereo partly drawn)           0.975
2  COc1cc(N)c(Cl)cc1C(=O)NC1CCN(Cc2ccccc2)CC1            1.02

stdin: // query normalized growth value for entry CO[C@@]12[C@@H]3NC3CN1C1=C(C(=O)C(N)=C(C)C1=O)[C@@H]2COC(N)=O (stereo partly drawn)
stdout: 1

====

method: chemical genetic growth profiling, strain panel (AID 1159580);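 note: tested at 20 µM; growth read once vehicle control cultures reached saturation at 30 °C; 1 = growth at the plate median or of vehicle wells; lower values mean less growth of the strain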
details: S. cerevisiae deletion strains, growth OD, locus YPL055C, strain LGE1
The campaign covered roughly 5,500 compounds. About 2,000 (36%) were called active. Not shown: some 18% with an inconclusive outcome. Cut-off read from the data, not from the text of the source: active = normalized growth mostly below about 0.91 (no sharp cut-off); inconclusive = no clear call, values can overlap the other calls; inactive = mostly above about 0.92. The list shows a part of the results.
Can you answer with just one of these options? T = active, F = inactive

compound	class.label
CC(C)=CCCC1(C)C=Cc2c(O)c3c(c(CC=C(C)C)c2O1)OC12C(=CCCC1C(C)(C)O[C@@]2(C/C=C(\C)C(=O)O)C(=O)O)C3=O (stereo partly drawn)	T

Continue with the next compound.
stdin: Test call for this compound, please: NNC(=O)c1ccncc1
stdout: F

====

method: chemical genetic growth profiling, strain panel (AID 1159580);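 note: tested at 20 µM; growth read once vehicle control cultures reached saturation at 30 °C; 1 = growth at the plate median or of vehicle wells; lower values mean less growth of the strain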
details: S. cerevisiae deletion strains, growth OD, locus YJL166W, strain qcr8, hits give low values
Screen size: about 5,500 compounds; about 2,000 (36%) were called active. About 18% were inconclusive and are not listed. The list shows a part of the results.
observable: normalized growth
The response must contain the number and no unit.

Worked examples follow.
> print(dat)
                                   molecule  recorded.value
1  C#C[C@]1(O)CCC2C3CCC4=CC(=O)CC[C@@H]4C3CC[C@@]21C (stereo partly specified)           0.992
2  Cc1ccc(S(=O)(=O)NC(=O)NN2CC3CCCC3C2)cc1 (stereo unspecified)           0.981
3  CC(C)CC(N(C)C)C1(c2ccc(Cl)cc2)CCC1 (stereo unspecified)            1.02
4  COc1cccc2c1C(=O)c1c(O)c3c(c(O)c1C2=O)C[C@@](O)(C(=O)CO)C[C@@H]3O[C@H]1C[C@H](N)[C@@H](O)[C@H](C)O1            0.59
5  COc1ccc2c(c1)c(CC(=O)O)c(C)n2C(=O)c1ccc(Cl)cc1           0.977

Could you now look at the following molecule, please?
stdin: // query normalized growth value for entry C#C[C@]1(OC(C)=O)CCC2C3CCC4=C/C(=N\O)CCC4C3CC[C@@]21CC (stereo partly specified)
stdout: 0.344
